Test system: Hepatitis C virus
method_description: Huh7.5.1-HCV determination (J399EM NS5A-EGFP fluorescence)
Assay type: cell-based
test_parameters: Hepatitis C virus, read-out: half effective inhibitive concentration against HCV virus tested in vitro
measured_parameter: pIC50
Lab note — pIC50 values are minus log10 of concentrations in M.

// lookup pIC50 for NC(=O)c1ncn([C@@H]2O[C@H](CO)[C@@H](O)[C@H]2O)n1 [Ribavirin, reference compound] 4.70
